Taken from patent US9234006B2.

Assay: Pharmacokinetic and urinary clearance studies in rats
Type: in vivo
Settings: male, Sprague Dawley, rat, in vivo, iv, 1 mg/kg
Counter-ions that a name gives are not always drawn. Where a SMILES comes first, the peptide text is derived from it. Bridges are numbered along the chain shown (N, C = ends). [ ]: non-standard residue; d: D form. The star is where a group is joined. ξ: configuration not given here. Thr(3ξ) = CC(O)[C@H](N)C(=O)O; Dab = NCC[C@H](N)C(=O)O; X1 = CCCCCCC(O)C(=O)*; GABA = NCCCC(=O)O; βAla = NCCC(=O)O
MEASUREMENT LABEL: Vd (L/kg)
Answer format: numeric, L/kg implied, no suffix.

Some entries whose results are on file:
CC(C)C[C@@H]1NC(=O)[C@@H](Cc2ccccc2)NC(=O)[C@H](CCN)NC(=O)[C@@H](NC(=O)[C@H](CCN)NC(=O)[C@@H](NC(=O)CCCN)[C@@H](C)O)CCNC(=O)[C@H]([C@@H](C)O)NC(=O)[C@H](CCN)NC(=O)[C@H](CCN)NC1=O [Example 6, Sulphate Salt] (H-[GABA]T[Dab][Dab][Dab][dF]L[Dab][Dab]T; lactam 4-C) = 0.289
CC(C)C[C@@H]1NC(=O)[C@@H](Cc2ccccc2)NC(=O)[C@H](CCN)NC(=O)[C@@H](NC(=O)[C@H](CCN)NC(=O)[C@@H](NC(=O)CCN)C(C)O)CCNC(=O)[C@H](C(C)O)NC(=O)[C@H](CCN)NC(=O)[C@H](CCN)NC1=O (stereo partly drawn) [Example 4, Sulphate Salt] (H-[βAla][Thr(3ξ)][Dab][Dab][Dab][dF]L[Dab][Dab][Thr(3ξ)]; lactam 4-C) = 0.69

Turning now to a further molecule:
The molecule listed as CCCCCCC(O)C(=O)N[C@H](C(=O)N[C@@H](CCN)C(=O)N[C@H]1CCNC(=O)[C@H](C(C)O)NC(=O)[C@H](CCN)NC(=O)[C@H](CCN)NC(=O)[C@H](CC(C)C)NC(=O)[C@@H](Cc2ccccc2)NC(=O)[C@H](CCN)NC1=O)C(C)O (stereo partly drawn) [Example 2, Sulphate Salt] (X1-[Thr(3ξ)][Dab][Dab][Dab][dF]L[Dab][Dab][Thr(3ξ)]; lactam 3-C) shows Vd equal to 0.488
